Tested on: SF-539 CNS
Experiment: NCI tumour cell line growth inhibition, 48 h; in the data active = GI50 below about 0.43 µM; inactive = the rest
API: response.call in True = active, False = inactive

Task: # lookup: test call for `CCc1nc(C)cn1C(=O)OCc1nc2nc(Cl)nc(N3CCOCC3)c2[nH]1`
Output: False

Task: # lookup: test call for `O=C1C=C(NCCO)c2nccc3c2c1nc1ccccc13`
Output: False

Task: # lookup: test call for Cc1nc2sc(C(=O)Nc3cccc(Br)c3C)c(N)c2cc1C(O)c1ccccc1 (stereo not drawn)
Output: True

---

Tested on: HOP-92 NSCLC
Test: NCI tumour cell line growth inhibition, 48 h
Where a SMILES comes first, the peptide text is derived from it. [ ]: non-standard residue; d: D form. ΔPro = O=C(O)[CH]1C=CCN1
TGI for assorted compounds

Before answering, review these 3 worked examples.
                                   compound    result
0  COC(=O)C1C(C(=O)O)C2(c3ccccc3)C(=O)C1(c1ccccc1)C(c1ccccc1)=C2c1ccccc1 (stereo unspecified)   30.9 µM
1  O=C1CSC(c2ccccc2O)N1c1ccc2c(c1)Oc1c(Cl)c3c(c(Cl)c1=N2)Oc1cc(N2C(=O)CSC2c2ccccc2O)ccc1N=3 (stereo unspecified)   39.9 µM
2  O=C(O)C1C=CCN1C(=O)C1C=CCN1C(=O)C1C=CCN1 (stereo unspecified) (H-[ΔPro]-[ΔPro]-[ΔPro]-OH; configuration not given here)  > 100 µM

Task: Fill in the blank: the reported TGI of C=CCCCCCCCCCP(=O)(c1ccccc1)c1ccc2c(c1)OCCOCCOCCOCCO2 (stereo unspecified) is ____.
Output: > 100 µM

Task: Fill in the blank: the reported TGI of O=C(NN1C(=O)CS(=O)(=O)C1c1ccc(Cl)c(Cl)c1)c1ccncc1 (stereo unspecified) is ____.
Output: > 100 µM

Task: Fill in the blank: the reported TGI of c1ccc(C2=NOC3C4CCC(C4)C23)cc1 (stereo unspecified) is ____.
Output: > 100 µM
